I'd appreciate it if you could supply Percent Effect values for the items below.
System: Wolbachia pipientis
Protocol Summary: Anti-Wolbachia Cell-Based Screen
Format: functional
Parameters: scale not given: in the data most compounds retested in dose-response had high values
Condition Info: 5 µM
About 13,000 (27%) of roughly 48,000 compounds showed an effect of 50% or more. The list shows a part of the results.
Report only the number, with the unit % understood.

[ask] Query (compound): CC(C)(C)c1nnc(CN2CCCC(c3cc(C(N)=O)[nH]n3)C2)o1 (stereo unspecified) ; field requested: Percent Effect
[reply] 1.877

[ask] Query (compound): CC(C)NC(=O)N1CCCC(c2nnc(CN3CCOCC3)n2C)C1 (stereo unspecified) ; field requested: Percent Effect
[reply] 7.81

[ask] Query (compound): Cc1nnc(CN2CCCC(c3cc(C(N)=O)[nH]n3)C2)o1 (stereo unspecified) ; field requested: Percent Effect
[reply] -6.189

[ask] Query (compound): `Cn1c(CN2CCOCC2)cc(=O)c(O)c1CN1CCCCC1` ; field requested: Percent Effect
[reply] 117.1

[ask] Query (compound): `Cn1c(CN2CCOCC2)cc(=O)c(O)c1CN1CCCC1` ; field requested: Percent Effect
[reply] 100.1

[ask] Query (compound): `CCS(=O)(=O)N1CCC(c2nnc(CN3CCOCC3)n2C)CC1` ; field requested: Percent Effect
[reply] 4.44

[ask] Query (compound): CCc1nnc(CN2CCCC(c3cc(C(N)=O)[nH]n3)C2)o1 (stereo unspecified) ; field requested: Percent Effect
[reply] 123.6

[ask] Query (compound): `Cn1c(=O)oc2ccc(NC(=O)N3CCOCC3)cc21` ; field requested: Percent Effect
[reply] 0.8661

[ask] Query (compound): `Cn1c(CN2CCOCC2)cc(=O)c(O)c1CN1CCOCC1` ; field requested: Percent Effect
[reply] 102.7

[ask] Query (compound): CCc1nnc(CN2CCCC(c3cc(C(F)(F)F)[nH]n3)C2)o1 (stereo unspecified) ; field requested: Percent Effect
[reply] -1.93

[ask] Query (compound): CC(C)c1cnc(CN2CCCC(c3cc(C(N)=O)[nH]n3)C2)o1 (stereo unspecified) ; field requested: Percent Effect
[reply] 94.99

---

Tested on: Wolbachia pipientis
Protocol Summary: Anti-Wolbachia Cell-Based Screen
Assay type: functional
Design: scale not given: in the data most compounds retested in dose-response had high values
Condition Info: 5 µM
Out of some 48,000 compounds screened, about 13,000 (27%) showed an effect of 50% or more. This is one part of the list.
Measured Endpoint: Percent Effect (%)
Report only the number, with the unit % understood.

[ask] Query (molecule): `Cc1nsc(N2CCN(Cc3cccc(F)c3)CC2)n1` ; field requested: Percent Effect
[reply] -33.99

[ask] Query (molecule): `O=C(N1CCCC1)N1CCN(Cc2cccnc2)c2ncccc2C1.O=C(O)C(F)(F)F.O=C(O)C(F)(F)F` ; field requested: Percent Effect
[reply] 101.8

[ask] Query (molecule): `CCn1cc(C(=O)N(C)Cc2c(F)cccc2Cl)cn1` ; field requested: Percent Effect
[reply] 10.91

[ask] Query (molecule): O=C1C(Nc2ccc3nccnc3n2)CCN1c1ccccc1 (configuration not stated) ; field requested: Percent Effect
[reply] 8.259

[ask] Query (molecule): `Cc1ncccc1OC1(C(=O)NCc2noc(C(C)C)n2)CCNCC1` ; field requested: Percent Effect
[reply] -7.244

[ask] Query (molecule): `O=c1ccc(-c2cccs2)nn1CN1CCN(Cc2ccccc2)CC1` ; field requested: Percent Effect
[reply] 10.59

[ask] Query (molecule): `CCCc1cc(NCc2nc(COC)no2)n2nccc2n1` ; field requested: Percent Effect
[reply] -5.978

[ask] Query (molecule): `O=C1N(c2cccc(Cl)c2)Cc2nc(=O)n(Cc3cccc(F)c3)n21` ; field requested: Percent Effect
[reply] -1.382

[ask] Query (molecule): `CS(=O)(=O)N1C[C@@H]2CC[C@H](C1)N(C(=O)Cn1nc3ccccc3n1)C2` ; field requested: Percent Effect
[reply] 3.871

[ask] Query (molecule): `O=C1CCC(=O)N1c1nn(Cc2cccc(F)c2)cc1Cl` ; field requested: Percent Effect
[reply] 81.78

[ask] Query (molecule): CN1CCOC(C(=O)N(C)c2ccc3c(c2)CCO3)C1 (configuration not stated) ; field requested: Percent Effect
[reply] -1.104

[ask] Query (molecule): `Cc1cc(C)n(CC(=O)N2CCC(NS(C)(=O)=O)CC2)n1` ; field requested: Percent Effect
[reply] -12.4

[ask] Query (molecule): `CCc1cc(N2CCC(N[C@@H]3CS(=O)(=O)C[C@H]3O)CC2)nc(N(C)C)n1` ; field requested: Percent Effect
[reply] -8.378

[ask] Query (molecule): `N#Cc1ccc(CN2CCc3sccc3C2)c(F)c1` ; field requested: Percent Effect
[reply] 2.911

[ask] Query (molecule): CN1CCN(Cc2ccccc2Cl)CC12CCC(=O)N(CC1CC1)CC2 (configuration not stated) ; field requested: Percent Effect
[reply] 19.23

[ask] Query (molecule): `COCCN1CC[C@@H]2O[C@@H](COCC(=O)N3CCCC3)CC[C@@H]21.O=C(O)C(F)(F)F` ; field requested: Percent Effect
[reply] -7.716

[ask] Query (molecule): `CN1CCC(N2CC[C@@H]3[C@@H](CCC(=O)N3CCC3=CCCCC3)C2)CC1` ; field requested: Percent Effect
[reply] -18.13

[ask] Query (molecule): `COC1CCN(S(=O)(=O)N2C[C@H](c3ccccc3)[C@@H](N)C2)CC1` ; field requested: Percent Effect
[reply] -9.837

[ask] Query (molecule): `CNC(=O)C(C)(C)N1CCC[C@H]1C(=O)NC(C)(C)C` ; field requested: Percent Effect
[reply] -3.15

[ask] Query (molecule): `Cc1cccc(COC[C@H]2CC[C@H]3[C@H](CCN3Cc3ccco3)O2)n1` ; field requested: Percent Effect
[reply] 105.2

[ask] Query (molecule): `O=C(c1cnccn1)N1CCN(Cc2cccnc2)c2ncccc2C1` ; field requested: Percent Effect
[reply] 97.13

[ask] Query (molecule): `CCOCCn1nc(C)cc1C(=O)N1CCC2(CC1)[C@H](O)C[C@@H]2OCC` ; field requested: Percent Effect
[reply] -36.55

[ask] Query (molecule): `O=C(c1cnccn1)N1CCN(Cc2ccncc2)c2ncccc2C1` ; field requested: Percent Effect
[reply] -4.343

[ask] Query (molecule): `c1ccc(CN2CCN(Cc3cscn3)CC2)cc1` ; field requested: Percent Effect
[reply] 8.549

[ask] Query (molecule): `O=C(COC[C@@H]1CC[C@H]2[C@H](CCN2Cc2ccco2)O1)N1CCCC1` ; field requested: Percent Effect
[reply] 94.38

[ask] Query (molecule): Cn1nnc2c1CCN(Cc1ccncc1)C2COCc1ccccc1.O=C(O)C(F)(F)F.O=C(O)C(F)(F)F (configuration not stated) ; field requested: Percent Effect
[reply] 7.235

[ask] Query (molecule): `O=C1CCC(=O)N1c1nn(Cc2c(F)cccc2Cl)cc1Cl` ; field requested: Percent Effect
[reply] 84.15

[ask] Query (molecule): `CN(C)C(=O)COC[C@H]1CC[C@@H]2[C@@H](CCN2Cc2ccco2)O1.O=C(O)C(F)(F)F` ; field requested: Percent Effect
[reply] 91.23

[ask] Query (molecule): `Cc1cccc(COC[C@@H]2CC[C@H]3[C@H](CCN3Cc3ccco3)O2)n1.O=C(O)C(F)(F)F.O=C(O)C(F)(F)F` ; field requested: Percent Effect
[reply] -8.217

[ask] Query (molecule): Cc1ccc2nc(C3CCCN3Cc3cccc(CCN)c3)[nH]c2c1 (configuration not stated) ; field requested: Percent Effect
[reply] -6.155

[ask] Query (molecule): `Cc1cccc(COC[C@@H]2CC[C@H]3[C@H](CCN3C(=O)CC3CC3)O2)n1.O=C(O)C(F)(F)F` ; field requested: Percent Effect
[reply] -1.291

[ask] Query (molecule): `c1coc(CN2CC[C@@H]3O[C@@H](COCC4CCOCC4)CC[C@@H]32)c1` ; field requested: Percent Effect
[reply] 95.89

[ask] Query (molecule): CCCN1CC(NC(=O)Nc2nc(C)n(C(C)C)n2)CC1=O (configuration not stated) ; field requested: Percent Effect
[reply] -10.65

[ask] Query (molecule): `CCCN(C)c1ccc(C(=O)Nc2c(C)nn(C(C)C)c2C)cc1` ; field requested: Percent Effect
[reply] 9.882

[ask] Query (molecule): Cc1nn(CC(=O)N2CCCC2Cn2cccn2)c(C)c1Cl (configuration not stated) ; field requested: Percent Effect
[reply] -2.085

[ask] Query (molecule): CS(=O)(=O)N1CCCCCC1C1CCN(c2ncccn2)CC1 (configuration not stated) ; field requested: Percent Effect
[reply] -4.856

[ask] Query (molecule): `CCCn1ncc(C(=O)N(Cc2cccnc2)C[C@@H]2CCC(=O)N2)c1C` ; field requested: Percent Effect
[reply] -6.874

[ask] Query (molecule): `CS(=O)(=O)N1CCC[C@H]1c1ncnn1-c1ccc2c(c1)OCO2` ; field requested: Percent Effect
[reply] 23.33

[ask] Query (molecule): `O=C1CCC(=O)N1c1nn(Cc2ccccc2)cc1Cl` ; field requested: Percent Effect
[reply] 98.19

[ask] Query (molecule): Cc1ccc2nc(C3CCCN3Cc3scnc3C)[nH]c2c1 (configuration not stated) ; field requested: Percent Effect
[reply] -7.773

[ask] Query (molecule): `COc1cc2c(cc1CN1C[C@@H](CN3CCOCC3)[C@@H](CO)C1)CCC2` ; field requested: Percent Effect
[reply] 3.11

[ask] Query (molecule): `CCOc1ccc(Cl)c(C(=O)N2CCN(CCO)CC2)n1` ; field requested: Percent Effect
[reply] -4.151
